measurement-target: HLA-A03.01 (Homo sapiens)
Sequence (P04439 25-365): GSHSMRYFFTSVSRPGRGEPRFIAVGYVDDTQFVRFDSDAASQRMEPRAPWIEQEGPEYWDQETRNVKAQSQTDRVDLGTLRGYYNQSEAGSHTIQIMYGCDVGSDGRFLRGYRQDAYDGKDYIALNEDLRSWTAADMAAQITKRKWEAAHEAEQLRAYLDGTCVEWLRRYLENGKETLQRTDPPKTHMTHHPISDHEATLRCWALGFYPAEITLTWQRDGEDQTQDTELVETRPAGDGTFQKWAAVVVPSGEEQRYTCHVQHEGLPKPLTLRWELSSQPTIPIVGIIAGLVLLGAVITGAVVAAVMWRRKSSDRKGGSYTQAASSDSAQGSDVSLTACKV
Sequence (P61769 21-119 partner): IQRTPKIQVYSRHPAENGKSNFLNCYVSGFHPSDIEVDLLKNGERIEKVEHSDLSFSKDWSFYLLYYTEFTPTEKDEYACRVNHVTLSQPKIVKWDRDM
measurement-protocol: Class I MHC peptide binding affinity (displacement of radiolabeled reference peptide)
assay-context: allele A03.01; read-out: Observed Affinity (IC50; (nM))
Where a SMILES comes first, the peptide text is derived from it.
endpoint-name: log10(IC50) (log10 of the value in nM)
Response schema: value (number) is log10 of IC50 in units of nM.

Here's what some known entries look like.
| molecule | measurement-target | log10(IC50) |
| --- | --- | --- |
| CSCC[C@H](NC(=O)[C@H](C)N)C(=O)N[C@H](C(=O)N[C@H](C(=O)N[C@@H](CO)C(=O)N[C@@H](CO)C(=O)N[C@@H](CO)C(=O)N[C@@H](CCC(N)=O)C(=O)N[C@@H](CCCCN)C(=O)N[C@@H](CC(N)=O)C(=O)O)[C@@H](C)O)[C@@H](C)O (H-AMTTSSSQKN-OH; N-terminus and C-terminus assumed) | HLA-A03.01 (Homo sapiens) | 3.37 |
| CSCC[C@H](NC(=O)[C@@H](N)Cc1ccc(O)cc1)C(=O)N[C@@H](Cc1ccccc1)C(=O)N[C@@H](CC(C)C)C(=O)N[C@@H](CCCCN)C(=O)N[C@@H](C)C(=O)N[C@@H](CCC(=O)O)C(=O)N[C@@H](CO)C(=O)N[C@@H](CCCCN)C(=O)O (H-YMFLKAESK-OH; N-terminus and C-terminus assumed) | HLA-A03.01 (Homo sapiens) | 1.90 |
| CSCC[C@H](N)C(=O)N[C@@H](CC(C)C)C(=O)N[C@@H](CC(C)C)C(=O)N[C@@H](CCCNC(=N)N)C(=O)N[C@@H](CC(C)C)C(=O)N[C@@H](CC(N)=O)C(=O)N[C@@H](CC(C)C)C(=O)N[C@@H](CCCNC(=N)N)C(=O)N[C@@H](CCCCN)C(=O)O (H-MLLRLNLRK-OH; N-terminus and C-terminus assumed) | HLA-A03.01 (Homo sapiens) | 0.11 |
| CSCC[C@H](NC(=O)[C@@H](N)Cc1ccc(O)cc1)C(=O)N[C@@H](C)C(=O)N[C@@H](CC(N)=O)C(=O)NCC(=O)N[C@@H](CO)C(=O)N[C@@H](CC(C)C)C(=O)N[C@@H](CC(C)C)C(=O)N[C@@H](CC(N)=O)C(=O)N[C@@H](Cc1ccc(O)cc1)C(=O)O (H-YMANGSLLNY-OH; N-terminus and C-terminus assumed) | HLA-A03.01 (Homo sapiens) | 1.98 |

Enquiry: Look up and report measured log10(IC50) for this entry: CSCC[C@H](NC(=O)[C@@H](N)CC(C)C)C(=O)N[C@@H](CC(C)C)C(=O)N[C@@H](CC(C)C)C(=O)N[C@@H](CCCNC(=N)N)C(=O)N[C@@H](CC(C)C)C(=O)N[C@@H](CC(N)=O)C(=O)N[C@@H](CC(C)C)C(=O)N[C@@H](CCCNC(=N)N)C(=O)N[C@@H](CCCCN)C(=O)O (H-LMLLRLNLRK-OH; N-terminus and C-terminus assumed)
Return: 0.78

Enquiry: Look up and report measured log10(IC50) for this entry: CSCC[C@H](NC(=O)[C@H](CC(C)C)NC(=O)[C@@H]1CCCN1C(=O)[C@@H](NC(=O)[C@H](CCCCN)NC(=O)[C@H](CCSC)NC(=O)[C@@H](N)CCCNC(=N)N)C(C)C)C(=O)N[C@@H](CCCCN)C(=O)O (H-RMKVPLMK-OH; N-terminus and C-terminus assumed)
Return: 1.52
